- tgt: Full length Human HDAC6 (Homo sapiens, UniProt Q9UBN7)
- Construct: Full length Human HDAC6; FLAG (C); host or cells: baculovirus expression system
- Sequence (Q9UBN7 whole entry): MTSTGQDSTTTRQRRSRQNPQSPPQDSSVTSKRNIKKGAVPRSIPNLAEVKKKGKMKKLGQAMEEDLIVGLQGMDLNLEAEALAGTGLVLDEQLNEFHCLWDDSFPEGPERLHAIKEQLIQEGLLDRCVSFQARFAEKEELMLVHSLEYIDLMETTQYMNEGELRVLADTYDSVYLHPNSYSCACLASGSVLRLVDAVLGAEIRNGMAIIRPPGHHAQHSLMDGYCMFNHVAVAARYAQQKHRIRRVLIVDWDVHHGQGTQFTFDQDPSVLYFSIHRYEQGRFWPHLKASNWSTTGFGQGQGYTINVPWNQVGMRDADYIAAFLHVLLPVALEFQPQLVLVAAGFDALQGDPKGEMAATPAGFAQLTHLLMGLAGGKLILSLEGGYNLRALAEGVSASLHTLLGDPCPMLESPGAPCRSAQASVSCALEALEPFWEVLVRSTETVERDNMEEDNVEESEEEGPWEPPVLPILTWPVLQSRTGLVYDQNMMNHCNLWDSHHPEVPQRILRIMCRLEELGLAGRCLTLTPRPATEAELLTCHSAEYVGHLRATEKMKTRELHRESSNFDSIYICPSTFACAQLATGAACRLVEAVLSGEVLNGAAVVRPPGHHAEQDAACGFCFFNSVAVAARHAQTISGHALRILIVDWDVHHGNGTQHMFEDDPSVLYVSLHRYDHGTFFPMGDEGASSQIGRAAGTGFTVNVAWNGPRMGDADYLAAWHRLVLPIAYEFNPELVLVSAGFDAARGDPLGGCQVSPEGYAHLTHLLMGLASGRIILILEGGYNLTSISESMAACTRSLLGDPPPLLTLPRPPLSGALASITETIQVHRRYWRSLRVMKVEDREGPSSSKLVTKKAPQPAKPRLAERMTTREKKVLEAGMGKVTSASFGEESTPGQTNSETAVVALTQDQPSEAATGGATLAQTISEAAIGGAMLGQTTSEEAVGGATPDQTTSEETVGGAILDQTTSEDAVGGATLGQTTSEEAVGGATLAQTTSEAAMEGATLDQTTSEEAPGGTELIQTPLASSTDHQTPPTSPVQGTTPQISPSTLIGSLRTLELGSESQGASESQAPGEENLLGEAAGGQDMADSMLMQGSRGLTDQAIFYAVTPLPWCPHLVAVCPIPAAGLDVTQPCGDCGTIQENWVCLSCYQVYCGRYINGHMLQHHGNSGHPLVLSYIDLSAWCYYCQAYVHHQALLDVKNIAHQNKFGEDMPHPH
- protocolSummary: Caliper endpoint assay for HDAC enzymatic activity (HDAC6)
- Format: biochemical
- cond: ratio of HDAC8 IC50/HDAC6 IC50
measuredAttribute: Selectivity (6 v 8)

Below, each entry is followed by its recorded Selectivity (6 v 8) result.
CN1[C@@H]2CC[C@H]1CC(CN1CCc3cc(C(=O)NO)cc(F)c3C1)C2 (single isomer, unassigned) [Compound 483] | IV (IV: >100-1000)
CC[C@@H]1Cc2c(F)cc(C(=O)NO)cc2CN1C1CC2(CCOCC2)C1 (single isomer, unassigned) | III (III: >10-100)
CC[C@@H]1Cc2c(F)cc(C(=O)NO)cc2CN1C1CC2(C1)CN(C)C2 (single isomer, unassigned) | IV (IV: >100-1000)
CC[C@H]1Cc2c(F)cc(C(=O)NO)cc2CN1CC1CCCCC1 (single isomer, unassigned) | IV (IV: >100-1000)
O=C(NO)c1cc(F)c(CN2C3CCC2CC(=NO)C3)cc1F | III (III: >10-100)

Consider the compound O=C(NO)c1cc(F)c2c(c1)CCN(C1CC3(CCCO3)C1)C2 (single isomer, unassigned) [Compound 190] . State its measured Selectivity (6 v 8).
IV (IV: >100-1000)

Fill in reported Selectivity (6 v 8) for this entry: CC1(C)C[C@H]2Cc3cc(C(=O)NO)cc(F)c3CN2C1 (single isomer, unassigned)
III (III: >10-100)

Report Selectivity (6 v 8), nothing else, for this compound: CC[C@@H]1Cc2c(F)cc(C(=O)NO)cc2CN1CC12CC3CC(CC(C3)O1)C2 (single isomer, unassigned)
III (III: >10-100)

Give the reported value of Selectivity (6 v 8) for this record: O=C(NO)c1cc(F)c2c(c1)C[C@H]1CCCN1C2
IV (IV: >100-1000)

State its Selectivity (6 v 8): CC[C@H]1Cc2c(F)cc(C(=O)NO)cc2CN1C[C@@H]1CCCCO1 (single isomer, unassigned)
III (III: >10-100)

Write down Selectivity (6 v 8) measured for item CC[C@H]1Cc2c(F)cc(C(=O)NO)cc2CN1C[C@@H]1C[C@H]2CC[C@@H](C1)N2C (single isomer, unassigned)
IV (IV: >100-1000)

Provide measured Selectivity (6 v 8) value, entry: O=C(NO)c1cc(F)c2c(c1)CCN([C@H]1C[C@]3(CCCCO3)C1)C2 (single isomer, unassigned)
IV (IV: >100-1000)

Indicate its recorded Selectivity (6 v 8); the compound in question is O=C(NO)c1ccc(CN2C3CCCC2CCC3)c(F)c1
II (II: >1-10)

For the compound O=C(NO)c1ccc2c(c1)CCN1CCCC[C@@H]21 , report Selectivity (6 v 8).
II (II: >1-10)

---

- tgt: Full length Human HDAC6 (Homo sapiens, UniProt Q9UBN7)
- Construct: Full length Human HDAC6; FLAG (C); host or cells: baculovirus expression system
- protocolSummary: Caliper endpoint assay for HDAC enzymatic activity (HDAC6)
- Format: biochemical
- cond: ratio of HDAC8 IC50/HDAC6 IC50
measuredAttribute: Selectivity (6 v 8)

[2H]c1c(C(=O)NO)ccc2c1CCN(C1CC3(CCCCC3)C1)C2 | IV (IV: >100-1000)
O=C(NO)c1ccc2c(c1)C[C@H]1CCCN1C2 | III (III: >10-100)
O=C(NO)c1cc(F)c2c(c1)CCN(C1CCOC3(CCC3)C1)C2 (single isomer, unassigned) | V (V: >1000)
O=C(NO)c1cc(F)c2c(c1)CCN([C@H]1CC[C@@]13CCOC3)C2 (single isomer, unassigned) | IV (IV: >100-1000)

Kindly review the next compound as well.
Provide Selectivity (6 v 8) value for the following compound: CC[C@@H]1Cc2c(F)cc(C(=O)NO)cc2CN1C[C@@]12C[C@@H](CO1)N(C)C2 (single isomer, unassigned)
V (V: >1000)
